tested on: HCT116; experiment: efficacy (fitted maximal change in viability relative to DMSO control); higher = less cytotoxic (negative = loss of viability); conditions: 48 h
Where a name gives a salt, the structure may show the parent alone.
measurement label: efficacy

>  <molecule>
CN(CCO)C1CCN(c2ccc(Nc3ncc4c5ccnc(F)c5n(C5CCCC5)c4n3)nc2)CC1 [AM-5992]

>  <efficacy>
-50%

$$$$
>  <molecule>
COc1cc2nc(-c3ccc(N4CCN(C)CC4)cc3)nc(NCCN3CCOCC3)c2cc1OC

>  <efficacy>
-87.2%

$$$$
>  <molecule>
CNC(=O)c1c(-c2ccc(F)cc2)oc2cc(N(CCO)[S+](C)(=O)[O-])c(C3CC3)cc12 [Nesbuvir]

>  <efficacy>
-8.31%

$$$$
>  <molecule>
CC(C)C[C@H](NC(=O)[C@H](Cc1ccccc1)NC(=O)c1cnccn1)B(O)O [Bortezomib]

>  <efficacy>
-94.1%

$$$$
>  <molecule>
O=C(c1ccc(F)c(F)c1Nc1ccc(I)cc1F)N1CC(O)([C@@H]2CCCCN2)C1 [Cobimetinib]

>  <efficacy>
-105%

$$$$

For every item below, please supply its efficacy.
1. COc1cc(OC)c(NC(=O)Nc2cc(C)on2)cc1Cl
2. COc1cc(N2CCC(N3CCN(C)CC3)CC2)ccc1Nc1ncnc(Nc2ccccc2[S+](=O)([O-])C(C)C)n1 [ASP-3026]
3. COc1cc2c(cc1OC)CC(=O)N(CCCN(C)C[C@H]1Cc3cc(OC)c(OC)cc31)CC2 [Ivabradine hydrochloride]
4. C[C@@H](Oc1cc(-n2cnc3ccc(CN4CCN(C)CC4)cc32)sc1C(N)=O)c1ccccc1C(F)(F)F
5. Cc1ccccc1C(C(=O)NC1CCCCC1)N(C(=O)CNc1ccc(C#N)cc1)c1cccc(F)c1 (configuration not stated) [IDH-C227]
6. Oc1ccc(OCc2ccccc2)cc1 [Monobenzone]

1: -7.13%; 2: -82.2%; 3: -21.3%; 4: -57.6%; 5: -56.1%; 6: -47.7%

For Cc1[nH]c2ccccc2c1CCNCc1ccc(/C=C/C(=O)NO)cc1 [Panobinostat] , write its efficacy. -87.7%

====

system: HCT116; experiment: AC50 cell viability (CellTiter-Glo); higher = less potent; conditions: 48 h
measurement label: log10 of AC50 cell viability (log10 of the value in nM)
// units: nM (pre-log); metric: AC50 cell viability; scale: log10

>  <compound>
NC(=O)N1CCC(CC(=O)N2CCC([C@H]3c4ncc(Br)cc4CCc4cc(Cl)cc(Br)c43)CC2)CC1 [Lonafarnib]

>  <log10 of AC50 cell viability>
4.27

$$$$
>  <compound>
CC(C)C1=C(O)C=C(O)C(=C1)C/2=N/NC(=O)N2C3=CC4=C(C=C3)[N](C)C=C4 [Ganetespib (STA-9090)]

>  <log10 of AC50 cell viability>
1.87

$$$$
>  <compound>
O=C(/C=C\n1cnc(-c2cc(C(F)(F)F)cc(C(F)(F)F)c2)n1)NNc1ccccn1 [Verdinexor]

>  <log10 of AC50 cell viability>
2.77

$$$$

Your task in this section: give log10 of AC50 cell viability for each listed record.
1. O=[N+]([O-])c1ccc(O)c2ncccc12 [Nitroxoline]
2. O=C(Nc1c[nH]nc1-c1nc2cc(CN3CCOCC3)ccc2[nH]1)NC1CC1 [AT-9283]
3. C=CCn1c(=O)c2cnc(Nc3ccc(N4CCN(C)CC4)cc3)nc2n1-c1cccc(C(C)(C)O)n1 [MK-1775]
4. COC1=C(NC2=NC=C(Cl)C(=N2)N[C@@H]3[C@H]\4C[C@@H](\C=C4)[C@H]3C(N)=O)C=CC5=C1CCC(CC5)N6CCOCC6 (stereo partly drawn)

1: 4.02; 2: 2.62; 3: 2.87; 4: 3.62

List reported log10 of AC50 cell viability for each of these compounds:
1. CCOc1cc2c(c(F)c1OCC)C(=N)N(CC(=O)c1cc(N3CCOCC3)c(OC)c(C(C)(C)C)c1)C2 [E5555]
2. C/C(=C\c1csc(C)n1)[C@@H]1C[C@@H]2O[C@]2(C)CCC[C@H](C)[C@H](O)[C@@H](C)C(=O)C(C)(C)[C@@H](O)CC(=O)O1 [Epothilone B]
3. Cc1[nH]c(/C=C2\C(=O)Nc3ccc(F)cc32)c(C)c1C(=O)NC[C@H](O)CN1CCOCC1
4. Nc1cc(C(F)(F)F)c(-c2nc(N3CCOCC3)nc(N3CCOCC3)n2)cn1 [Bimiralisib]

1. 3.87
2. 0.82
3. 3.42
4. 3.27

// for each compound below, give its log10 of AC50 cell viability
1. Nc1cccc([S+](=O)([O-])N2CCCN([S+](=O)([O-])c3ccc4c(c3)OCCO4)CC2)c1 [DASA-58]
2. N[S+](=O)([O-])c1cccc2c1C(=O)c1cccc(O)c1C2=O [LLL-12]

4.17
2.92

====

tested on: HCT116; assay: AC50 cell viability (CellTiter-Glo); higher = less potent; conditions: 48 h
Label criterion met when AC50 cell viability < 10 µM; otherwise criterion not met.

Observe how each entry below is paired with its result.
>  <compound>
C=CC(=O)Nc1cc2c(Nc3ccc(F)c(Cl)c3)ncnc2cc1C#CC(C)(C)N1CCN(C)CC1 [AV-412]

>  <class>
criterion met

$$$$
>  <compound>
CCCCN(CCCC)CCC(O)c1cc2c(Cl)cc(Cl)cc2c2cc(C(F)(F)F)ccc12.Cl (stereo not given) [Halofantrine]

>  <class>
criterion not met

$$$$
>  <compound>
Cc1ccc(NC(=O)c2ccc(CN3CCN(C)CC3)cc2)cc1Nc1nc(-c2cccnc2)cs1 [Masitinib]

>  <class>
criterion not met

$$$$
>  <compound>
COC1=C(OCCCN2CCOCC2)C=CC\3=C1/N=C(/NC(=O)C4=CN=C(N)N=C4)N5CC/N=C35 [Copanlisib]

>  <class>
criterion met

$$$$

Now turn to the next compound.
Input NCC(=O)Nc1ccc(-n2nc(C(F)(F)F)cc2-c2ccc3c(ccc4ccccc43)c2)cc1 ; condition: AC50 cell viability strictly below 10 µM. Does it hold? criterion not met

====

system: HCT116; experiment: efficacy (fitted maximal change in viability relative to DMSO control); higher = less cytotoxic (negative = loss of viability); details: 48 h
measurement label: efficacy (%)
One number for each entry, in %.

Below are worked cases with known answers.
>  <compound>
c1ccc2c(-c3cnn4cc(-c5ccc(OCCN6CCOCC6)cc5)cnc34)ccnc2c1

>  <efficacy [%]>
-84.3

$$$$
>  <compound>
C=CC(=O)N1CC(N2CCN(C(=O)CNc3cc(C4(C)CC4)c(Cl)cc3O)CC2)C1 [ARS-853]

>  <efficacy [%]>
-63.4

$$$$
>  <compound>
COc1cc(C(=O)NC(=N)Nc2ccc(C)c(NC(=O)c3ccc(-c4ccccc4)cc3)c2)cc(OC)c1OC [MRT-83]

>  <efficacy [%]>
-47.2

$$$$
>  <compound>
CN1\C=N/C2=CC=C(NC3=CC(=CC=C3C)NC(=O)C4=CC(=CC=C4)C(C)(C)C#N)C=C2C1=O [AZ-628]

>  <efficacy [%]>
-50.6

$$$$
>  <compound>
O=C(CO)N1CCC(c2n[nH]c(-c3ccc(Cl)cc3)c2-c2ccncn2)CC1 [SD-06]

>  <efficacy [%]>
17.8

$$$$
>  <compound>
CC1(N)CCN(c2cccnc2NC(=O)c2nc(-c3ncccc3C(F)(F)F)cnc2N)CC1 [LXS-196]

>  <efficacy [%]>
-70.1

$$$$

Lab note: next compound to report on.
Provide one value: measured efficacy of CNC(=O)Cn1cc(-c2ccc3c(c2)C(F)CC32NC(=O)N(CC(=O)N(Cc3ccc(F)cc3)C(C)C(F)(F)F)C2=O)cn1 (configuration not stated) -51.2

====

Assign efficacy to each entry below.
system: HCT116; assay: efficacy (fitted maximal change in viability relative to DMSO control); higher = less cytotoxic (negative = loss of viability); conditions: 48 h
Answers are plain numbers, in %.

Previously resolved entries follow.
>  <compound>
c1cc(-c2cnn3cc(-c4ccc(OCCN5CCCCC5)cc4)cnc23)ccn1 [Dorsomorphin]

>  <unit annotation>
%

>  <efficacy>
-82.7

$$$$
>  <compound>
CC(C)[C@]12O[C@H]1[C@@H]3O[C@@]34[C@@]5(C)CC\C6=C(COC6=O)/[C@@H]5C[C@@H]7O[C@]47[C@@H]2O [Triptolide]

>  <unit annotation>
%

>  <efficacy>
-52.7

$$$$
>  <compound>
O=C([C@@H](Cc1cccc(C(F)(F)F)c1)N[S+](=O)([O-])c1cc(F)c2c(c1)CCNC2)N1CCCC1 [(R)-PFI-2]

>  <unit annotation>
%

>  <efficacy>
-23.9

$$$$
>  <compound>
O=C(CCCCCCNC(=O)c1cnc(N(c2ccccc2)c2ccccc2)nc1)NO [ACY-1215]

>  <unit annotation>
%

>  <efficacy>
-93.5

$$$$

Hello, I would appreciate it if you could give efficacy for each entry below.
1. O=[N+]([O-])c1cnc(Sc2nnc(O)n2-c2ccc3c(c2)OCCO3)s1 [BI-78D3]
2. c1ccc2[nH]c(-c3cscn3)nc2c1 [Thiabendazole]
3. NC(CC1c2ccccc2Oc2ccccc21)(C(=O)O)C1CC1C(=O)O (configuration not stated)

-94.7
-7.02
-10.8
